target: HIV-1 Env of isolate MGRM-D-019 (subtype D) (HIV-1); assay: cell-based or functional assay
Would you mind telling me the reported IC50 (neutralization) of each entry?

// below: answered binders
- PGT-130 (antibody, V domains shown) VH: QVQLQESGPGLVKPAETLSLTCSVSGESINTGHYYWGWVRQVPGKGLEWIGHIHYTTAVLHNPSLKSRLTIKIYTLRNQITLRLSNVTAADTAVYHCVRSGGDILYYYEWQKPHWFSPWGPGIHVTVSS VL: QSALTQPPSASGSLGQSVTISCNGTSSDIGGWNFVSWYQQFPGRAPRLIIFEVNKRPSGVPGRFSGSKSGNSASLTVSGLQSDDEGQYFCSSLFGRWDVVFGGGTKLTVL: > 50 µg/mL
- PGT-137 (antibody, V domains shown) VH: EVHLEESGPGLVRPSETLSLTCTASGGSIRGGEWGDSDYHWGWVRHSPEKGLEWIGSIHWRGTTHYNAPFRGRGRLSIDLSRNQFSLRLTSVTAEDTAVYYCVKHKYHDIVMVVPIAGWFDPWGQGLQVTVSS VL: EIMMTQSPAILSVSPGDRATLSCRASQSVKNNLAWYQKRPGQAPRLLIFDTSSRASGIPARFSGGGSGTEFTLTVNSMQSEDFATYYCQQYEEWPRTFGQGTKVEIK: > 50 µg/mL

Continue with the next binder.
Prompt line: What value of IC50 (neutralization) has been recorded for this entry: PGT-126 (antibody, V domains shown) VH: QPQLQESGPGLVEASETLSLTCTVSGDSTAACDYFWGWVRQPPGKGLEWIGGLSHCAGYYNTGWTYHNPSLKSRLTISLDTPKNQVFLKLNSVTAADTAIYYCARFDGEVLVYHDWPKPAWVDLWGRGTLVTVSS VL: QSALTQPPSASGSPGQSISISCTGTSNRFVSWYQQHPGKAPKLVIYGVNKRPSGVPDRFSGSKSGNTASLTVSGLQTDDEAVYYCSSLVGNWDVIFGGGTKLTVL
Response line: > 50 µg/mL

Entry source: patent US20160264649A1
